- tested on: LPO purified from bovine milk (Bos taurus, UniProt P80025)
- Construct: from tissue; host or cells: fresh bovine milk
- assay explanation: LPO inhibition assay (ABTS oxidation by H2O2, absorbance at 412 nm; Lineweaver–Burk plots)
- Assay type: biochemical
- measurement setup: LPO purified from bovine milk; Lineweaver–Burk plots, three inhibitor and five ABTS concentrations; Means ± SD
pKi: −log10 of the molar value.
readout kind: pKi

>>> value("Cc1noc(NS(=O)(=O)c2ccc(NC(=O)c3cc(O)c(O)c(O)c3)cc2)c1C")
5.84
>>> value("Cc1cc(C)nc(NS(=O)(=O)c2ccc(NC(=O)c3cc(O)c(O)c(O)c3)cc2)n1")
5.66
>>> value("CC(=O)Oc1ccc(C(=O)Nc2ccc(S(=O)(=O)Nc3nc(C)cc(C)n3)cc2)cc1 [5c, N-(sulfamethazine)-p-acetoxybenzamide]")
8.10
>>> value("CC(=O)Oc1ccc(C(=O)Nc2ccc(S(=O)(=O)Nc3nccs3)cc2)cc1 [5a, N-(sulfathiazole)-p-acetoxybenzamide]")
4.25
>>> value("CC(=O)Oc1cc(C(=O)Nc2ccc(S(=O)(=O)Nc3onc(C)c3C)cc2)cc(OC(C)=O)c1OC(C)=O")
5.97
>>> value("Nc1ccc(S(=O)(=O)Nc2nccs2)cc1 [4a, Sulfathiazole, reference compound]")
4.42

###

Listed here: items and their measured IC50.
- tested on: LPO purified from bovine milk (Bos taurus, UniProt P80025)
readout kind: IC50 (µM)

>>> value("Cc1cc(C)nc(NS(=O)(=O)c2ccc(NC(=O)c3cc(O)c(O)c(O)c3)cc2)n1")
2.53
>>> value("CC(=O)Oc1cc(C(=O)Nc2ccc(S(=O)(=O)Nc3ncccn3)cc2)cc(OC(C)=O)c1OC(C)=O")
13.9
>>> value("Nc1ccc(S(=O)(=O)Nc2nccs2)cc1 [4a, Sulfathiazole, reference compound]")
231
>>> value("NS(=O)(=O)c1ccc(NC(=O)c2cc(O)c(O)c(O)c2)cc1")
1.78
>>> value("Cc1ccnc(NS(=O)(=O)c2ccc(NC(=O)c3ccc(O)cc3)cc2)n1 [7g, N-(sulfamerazine)-p-hydroxybenzamide]")
1.76
>>> value("Nc1ccc(S(=O)(=O)Nc2ncccn2)cc1 [4b, Sulfadiazine, reference compound]")
92.2
>>> value("CC(=O)Oc1ccc(C(=O)Nc2ccc(S(=O)(=O)Nc3onc(C)c3C)cc2)cc1 [5e, N-(sulfisoxazole)-p-acetoxybenzamide]")
3.03
>>> value("CC(=O)Oc1ccc(C(=O)Nc2ccc(S(=O)(=O)Nc3ccccn3)cc2)cc1 [5d, N-(sulfapyridine)-p-acetoxybenzamide]")
10
>>> value("CC(=O)Oc1ccc(C(=O)Nc2ccc(S(=O)(=O)Nc3nccs3)cc2)cc1 [5a, N-(sulfathiazole)-p-acetoxybenzamide]")
99
>>> value("Cc1noc(NS(=O)(=O)c2ccc(NC(=O)c3ccc(O)cc3)cc2)c1C [7e, N-(sulfisoxazole)-p-hydroxybenzamide]")
10.8
>>> value("Cc1nnc(NS(=O)(=O)c2ccc(NC(=O)c3ccc(O)cc3)cc2)s1 [7f, N-(sulfamethizole)-p-hydroxybenzamide]")
0.799
>>> value("Nc1ccc(S(N)(=O)=O)cc1 [4h, Sulfanilamide, reference compound]")
8.48
>>> value("Cc1cc(C)nc(NS(=O)(=O)c2ccc(NC(=O)c3ccc(O)cc3)cc2)n1 [7c, N-(sulfamethazine)-p-hydroxybenzamide]")
0.426
>>> value("CC(=O)Oc1cc(C(=O)Nc2ccc(S(=O)(=O)Nc3nnc(C)s3)cc2)cc(OC(C)=O)c1OC(C)=O")
6.66
>>> value("Cc1ccnc(NS(=O)(=O)c2ccc(N)cc2)n1 [4g, Sulfamerazine, reference compound]")
18.7
>>> value("NS(=O)(=O)c1ccc(NC(=O)c2ccc(O)cc2)cc1 [7h, N-(sulfanilamide)-p-hydroxybenzamide]")
0.285
>>> value("Cc1nnc(NS(=O)(=O)c2ccc(N)cc2)s1 [4f, Sulfamethizole, reference compound]")
115
>>> value("Cc1cc(C)nc(NS(=O)(=O)c2ccc(N)cc2)n1 [4c, Sulfamethazine, reference compound]")
346
>>> value("CC(=O)Oc1ccc(C(=O)Nc2ccc(S(N)(=O)=O)cc2)cc1 [5h, N-(sulfanilamide)-p-acetoxybenzamide]")
3.05
>>> value("CC(=O)Oc1ccc(C(=O)Nc2ccc(S(=O)(=O)Nc3nc(C)cc(C)n3)cc2)cc1 [5c, N-(sulfamethazine)-p-acetoxybenzamide]")
0.01
>>> value("Cc1ccnc(NS(=O)(=O)c2ccc(NC(=O)c3cc(O)c(O)c(O)c3)cc2)n1")
1.48
>>> value("O=C(Nc1ccc(S(=O)(=O)Nc2ccccn2)cc1)c1ccc(O)cc1 [7d, N-(sulfapyridine)-p-hydroxybenzamide]")
2.96
>>> value("Nc1ccc(S(=O)(=O)Nc2ccccn2)cc1 [4d, Sulfapyridine, reference compound]")
227
>>> value("CC(=O)Oc1cc(C(=O)Nc2ccc(S(=O)(=O)Nc3ccccn3)cc2)cc(OC(C)=O)c1OC(C)=O")
1.56
>>> value("CC(=O)Oc1ccc(C(=O)Nc2ccc(S(=O)(=O)Nc3nnc(C)s3)cc2)cc1 [5f, N-(sulfamethizole)-p-acetoxybenzamide]")
0.238
>>> value("CC(=O)Oc1ccc(C(=O)Nc2ccc(S(=O)(=O)Nc3ncccn3)cc2)cc1 [5b, N-(sulfadiazine)-p-acetoxybenzamide]")
0.015
>>> value("O=C(Nc1ccc(S(=O)(=O)Nc2nccs2)cc1)c1ccc(O)cc1 [7a, N-(sulfathiazole)-p-hydroxybenzamide]")
15.1
>>> value("CC(=O)Oc1ccc(C(=O)Nc2ccc(S(=O)(=O)Nc3nccc(C)n3)cc2)cc1 [5g, N-(sulfamerazine)-p-acetoxybenzamide]")
3.94
>>> value("Cc1nnc(NS(=O)(=O)c2ccc(NC(=O)c3cc(O)c(O)c(O)c3)cc2)s1")
173
>>> value("Cc1noc(NS(=O)(=O)c2ccc(N)cc2)c1C [4e, Sulfisoxazole, reference compound]")
222
>>> value("O=C(Nc1ccc(S(=O)(=O)Nc2ncccn2)cc1)c1ccc(O)cc1 [7b, N-(sulfadiazine)-p-hydroxybenzamide]")
0.04

Source: paper PMC6152724
